System: HIV-1 integrase (with human LEDGF/p75)
assay-procedure: blockers of LEDGF/p75-dependent integrase strand transfer – biochemical, TR-FRET, high throughput, primary screen (AID 743269);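 further: signal is the Cy5 over europium emission ratio at 671 and 618 nm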
particulars: TR-FRET IN-LEDGF/p75 DNA integration, Eu/Cy5; at 3.7 µM
Screen size: about 370,000 compounds; about 2,400 (0.65%) were called active.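 How the source made its calls: active means inhibition above the screen-wide mean plus 3 SD (cut at about 13% in these data); inactive means the rest.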 Shown is part of a subset that was picked to be rich in actives.
Reply using exactly one outcome from active, inactive

Study these solved cases before continuing.
>>> print(df.to_string())
                                   compound  label_class
0  CN1C[C@]2(C=C3CCCCC3n3c(=O)n(-c4ccccc4)c(=O)n32)N=C1NC(=O)c1ccccc1 (stereo not given in full)     inactive
1  FC(F)(F)c1cccc(NC(=S)OC2CCC23CCC(c2ccccc2)CC3)c1 (stereo not given)     inactive
2  CSc1ccc(C=Nn2c(-c3ccc(F)cc3)n[nH]c2=S)cc1     inactive
3  Cc1cc(C(=O)N/N=C/c2ccc(O)c([N+](=O)[O-])c2)c(C)n1-c1ccc(F)cc1       active

Turning to the following compound.
Dear colleague, could you share the recorded outcome for `Cc1cccc(NC(=O)C[C@H]2CC[C@H]3[C@@H](COc4ccc(NC(=O)Nc5ccccc5)cc4C(=O)N3C)O2)c1` when you have a moment? inactive
